system: J7/A300 cells; assay: Cytotoxicity against AD 198-resistant J7/A300 cells; format: cell-based, murine; details: Mus musculus, read-out: ID50
experimental.readout: IC50 (nM)
Your answer is read as nM, so omit the unit and give the number.

INPUT: Field request: IC50 | item: COc1cccc2c1C(=O)c1c(O)c3c(c(O)c1C2=O)C[C@@](O)(C(=O)CO)C[C@@H]3O[C@H]1C[C@H](N)[C@H](O)[C@H](C)O1 [Doxorubicin, doxorubicin]
OUTPUT: 586

###

# maps each entry to its IC50
tested on: J7/A300 cells; test: Cytotoxicity against AD 198-resistant J7/A300 cells; assay type: cell-based, murine; details: Mus musculus; J7/A300; read-out: ID50 (the source's name)
Your answer is read as nM, so omit the unit and give the number.

- smiles.text: "COc1cccc2c1C(=O)c1c(O)c3c(c(O)c1C2=O)C[C@@](O)(C(=O)CO)C[C@@H]3O[C@H]1C[C@H](OCc2ccccc2)[C@H](O)[C@H](C)O1"
  IC50 / nM: 2430
- smiles.text: "CCCCC(=O)OCC(=O)[C@]1(O)Cc2c(O)c3c(c(O)c2[C@@H](O[C@H]2C[C@H](NCc4ccccc4)[C@H](O)[C@H](C)O2)C1)C(=O)c1c(OC)cccc1C3=O"
  IC50 / nM: 748

Next item in the queue.
INPUT: Missing value: IC50, J7/A300 cells, entry CCCCC(=O)OCC(=O)[C@]1(O)Cc2c(O)c3c(c(O)c2[C@@H](O[C@H]2C[C@H](OCc4ccccc4)[C@H](O)[C@H](C)O2)C1)C(=O)c1c(OC)cccc1C3=O . Fill in?
OUTPUT: 2770

Recorded values, source patent US5625043A.
